- EXPERIMENTAL TARGET: Protein-S-isoprenylcysteine O-methyltransferase (Homo sapiens, UniProt O60725)
- Sequence (O60725 whole entry, the tested form may be a part): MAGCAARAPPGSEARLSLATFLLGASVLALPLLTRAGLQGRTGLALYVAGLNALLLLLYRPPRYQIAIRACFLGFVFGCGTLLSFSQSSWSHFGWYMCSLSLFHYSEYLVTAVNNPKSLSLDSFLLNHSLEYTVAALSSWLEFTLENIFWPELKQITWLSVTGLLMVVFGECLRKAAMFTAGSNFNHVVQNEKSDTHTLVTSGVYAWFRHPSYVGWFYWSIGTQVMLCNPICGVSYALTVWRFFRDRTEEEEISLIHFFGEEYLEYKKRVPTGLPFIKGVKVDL
- MEASUREMENT NOTES: Inhibition of human ICMT at 10 uM by vapor diffusion assay
Answer each item with its documented inhibition.
Give bare numbers, in %.

CC(=O)N[C@@H](CSC/C=C(/Cc1ccc(-c2ccccc2)cc1)c1ccccc1)C(=O)O; 26.6
CC(=O)N[C@@H](CSC/C=C(/Cc1ccccc1)c1ccccc1)C(=O)O; 15.7
CC(=O)N[C@@H](Cn1cc(C/C=C(\C)CC/C=C(\C)CCC=C(C)C)nn1)C(=O)O; 19.5
CCCCCCc1ccc(CC/C(C)=C/CSC[C@H](NC(C)=O)C(=O)O)cc1; 18.8
CC(=O)N[C@@H](CSC/C=C(\C)CCCCOc1ccc2ccccc2c1)C(=O)O; 22.4

Fill in inhibition for each of the 4 compounds listed.
1. CCCc1ccc(CC/C(C)=C/CSC[C@H](NC(C)=O)C(=O)O)cc1
2. CC(=O)N[C@@H](CSC/C=C(\C)CCCCOc1ccc(Oc2ccccc2)cc1)C(=O)O
3. CC(C)=CCC/C(C)=C/CC/C(C)=C/Cc1cn(C[C@H](NC(=O)c2ccccc2-c2ccccc2)C(=O)O)nn1
4. CCCCCc1ccc(CC/C(C)=C/CSC[C@H](NC(C)=O)C(=O)O)cc1

20.7
19.4
17
23.1
